Biological target: ovine COX-1 (Ovis aries);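 note: COX peroxidase activity read colorimetrically as oxidized TMPD at 590 nm, arachidonic acid as substrate, inhibitors tested at 0.001–50 µM from DMSO stocks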
Sequence (P05979 25-600): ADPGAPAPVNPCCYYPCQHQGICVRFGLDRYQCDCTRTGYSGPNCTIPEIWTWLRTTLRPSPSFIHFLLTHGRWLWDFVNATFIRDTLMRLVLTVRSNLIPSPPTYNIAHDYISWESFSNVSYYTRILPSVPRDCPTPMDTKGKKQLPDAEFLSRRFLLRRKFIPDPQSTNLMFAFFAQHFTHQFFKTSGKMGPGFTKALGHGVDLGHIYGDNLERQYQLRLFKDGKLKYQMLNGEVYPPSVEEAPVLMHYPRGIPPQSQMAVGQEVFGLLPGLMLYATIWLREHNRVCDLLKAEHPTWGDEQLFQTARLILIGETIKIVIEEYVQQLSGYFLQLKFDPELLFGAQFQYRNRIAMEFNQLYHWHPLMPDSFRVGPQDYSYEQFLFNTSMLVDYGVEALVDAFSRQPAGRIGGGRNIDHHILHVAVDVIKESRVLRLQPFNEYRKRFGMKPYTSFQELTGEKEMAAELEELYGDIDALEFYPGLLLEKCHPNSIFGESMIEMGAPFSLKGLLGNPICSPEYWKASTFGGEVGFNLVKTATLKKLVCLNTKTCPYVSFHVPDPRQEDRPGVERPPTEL
pIC50: −log10 of the molar value.
# Lookup of reported pIC50 keyed by entry

>  <compound>
Cc1ccc(-c2cc(N)cc(-c3ccccc3)c2)cc1 [Compound 3b, 4-Methyl-5′-amino-m-terphenyl]

>  <recorded-value>
5.96

$$$$
>  <compound>
CCOC(=O)c1c(N)cc(-c2ccccc2)cc1-c1ccccc1 [Compound 1a, ethyl 6-amino-2,4-diphenylbenzoate]

>  <recorded-value>
< 4.30

$$$$
>  <compound>
O=C(Nc1cc(-c2ccccc2)cc(-c2ccccc2)c1)NC1CCCC1 [Compound 4a]

>  <recorded-value>
< 4.30

$$$$
>  <compound>
Nc1cc(-c2ccccc2)cc(-c2ccc(Cl)cc2)c1 [Compound 3c, 4-Chloro-5′-amino-m-terphenyl]

>  <recorded-value>
5.33

$$$$
>  <compound>
Nc1cc(-c2ccc(Br)cc2)cc(-c2ccc(Br)cc2)c1 [Compound 3f, 4,4″-Dibromo-5′-amino-m-terphenyl]

>  <recorded-value>
< 4.30

$$$$
>  <compound>
c1ccc(Nc2cc(-c3ccccc3)cc(-c3ccccc3)c2)cc1 [Compound 3g, 5′-Phenylamino-m-terphenyl]

>  <recorded-value>
< 4.30

$$$$

Bench note, ovine COX-1 (Ovis aries): entry O=C(Nc1cc(-c2ccc(Cl)cc2)cc(-c2ccc(Cl)cc2)c1)NC1CCCC1 [Compound 4d] , its pIC50 = < 4.30

Bench note, ovine COX-1 (Ovis aries): entry COc1ccc(-c2cc(N)c(C(=O)O)c(-c3ccccc3)c2)cc1 [Compound 2e] , its pIC50 = < 4.30

Bench note, ovine COX-1 (Ovis aries): entry Nc1cc(-c2ccccc2)cc(-c2ccccc2)c1 [Compound 3a, 5′-Amino-m-terphenyl] , its pIC50 = 6.10

Bench note, ovine COX-1 (Ovis aries): entry O=C(Nc1cc(-c2ccccc2)cc(-c2ccc(Cl)cc2)c1)NC1CCCC1 [Compound 4c] , its pIC50 = < 4.30

Bench note, ovine COX-1 (Ovis aries): entry COc1ccc(-c2cc(N)cc(-c3ccccc3)c2)cc1 [Compound 3e, 4-Methoxy-5′-amino-m-terphenyl] , its pIC50 = 6.05
